biological target: pooled human IgG (human IgG1,2,3 and 4)
READOUT_TYPE: Enzyme Activity Endpoint Assay: Fab'2 (ng/µL)
Reply with just the number (in ng/µL).

Some entries whose results are on file:
{"columns": ["PROTEIN", "RESULT_UNITS", "OBS_VALUE"],
 "data": [
  ["PRT-177 (protein) MANQEIRYSEVTPYHIKTVWTDGVKPPTDFIKGEDVFHAPYKAHQGWYDITKAFDGGDDLLCGAATAGNMLHWWFDQNSTQIEAYLKKHPDKQKINFNGEQMFDVKEAIDTKNSQTNSELFNYFKEKAFPYLSTKHLGVFPDHVIDMFINGYRLSLTNHGPTPVKRQTKDPRGGIFDAVFGRGDSTKLLTSRHDFKEKTLNDISQLIKQELQSGKALGLSHTYANVRINHVINLWGADFDAEGNLEAIYVTDSDSNASIGMKKYFVGKNASGKVAISAKEIEDENIGAQVLGLFTLSTGKKSWEKTN", "ng/µL", 67],
  ["PRT-186 (protein) MANQEIRYSEVTPYHVTSVWTKGVTPPANFRKIVDGNIAYYHAPYVANQGWYDITKTFNGKDDLLCGAATAGNMLHWWFDQNKDQIKRYLEEHPEKQKINFNGEQMFDVKEAIDTKNHQLDSKLFEYFKEKAFPYLSTKHLGVFPDHVIDMFINGYRLSLTNHGPTPVKEGSKDPRGGIFDAVFTRGDQSKLLTSRHDFKEKNLKEISDLIKKELTEGKALGLSHTYANVRINHVINLWGADFDSNGNLKAIYVTDSDSNASIGMKKYFVGVNSAGKVAISAKEIKEDNIGAQVLGLFTLSTGQDSWNQTN", "ng/µL", 646]
]}

Req: Give recorded Enzyme Activity Endpoint Assay: Fab'2. PRT-174 (protein) MANQEIRYSEVTPYHVTSVWTKGVTPPANFTQGEDVFHAPYVANQGWYDITKTFNGKDDLLCGAATAGNMLHWWFDQNKDQIKRYLEEHPEKQKINFNGEQMFDVKEAIDTKNHQLDSKLFEYFKEKAFPYLSTKHLGVFPDHVIDMFINGYRLSLTNHGPTPVKEGSKDPRGGIFDAVFTRGDQSKLLTSRHDFKEKNLKEISDLIKKELTEGKALGLSHTYANVRINHVINLWGADFDSNGNLKAIYVTDSDSNASIGMKKYFVGKNASGKVAISAKEIEDENIGAQVLGLFTLSTGQDSWNQTN
Resp: 586

Req: Tell me Enzyme Activity Endpoint Assay: Fab'2 reported for PRT-182 (protein) MANQEIRYSEVTPYHVTSVWTKGVTPPANFTQGEDVFHAPYVANQGWYDITKTFNGKDDLLCGAATAGNMLHWWFDQNKDQIKRYLEEHPEKQKINFNGEQMFDVKEAIDTKNHQLDSKLFEYFKEKAFPYLSTKHLGVFPDHVIDMFINGYRLSLTNHGPTPVKEGSKDPRGGIFDAVFTRGDQSKLLTSRHDFKEKNLKEISDLIKKELTEGKALGLSHTYANVRINHVINLWGADFDSNGNLKAIYVTDSDSNASIGMKKYFVGVNSAGKVAISAKKIKEDNIGAQVLGLFTLSTGQDSWNQTN
Resp: 563

From: patent US20250027068
